# pKd annotations
target: T1, human serum albumin (Homo sapiens, UniProt P02768); assay: SPR; Biacore T200; HSA immobilised on CM5 chip by amine coupling (~1000 RU); increasing concentrations of antibodies injected at 30 μl/min; PBS with 0.05% Tween-20; global fit, 1:1 Langmuir model; settings: both partners purified
T1 construct: human serum albumin (HSA), purchased from Sigma-Aldrich Japan; dissolved in phosphate buffer and dialysed; also called HSA; source: bought: Sigma-Aldrich Japan
Remember, pKd is on a log scale: it is -log10 of the molar concentration.

Worked examples, 3 binders total:
Binder	pKd
Z18-G78A (VHH, IMGT numbering; the methods describe vector and expression for Z18 and Z26; source: E. coli BL21 (DE3), purified (Ni-NTA, SEC)) VHH: QVQLVESGGGLVQAGDSLRLSCAASGRTFSGYAMGWFRQAPGKEREFVARINWSGTLTYYADSVKGRFTASRDNAKNTVYLQMNSLKPEDTAVYYCAQRGDSGSNYDPSGYSYWGQGTQVTVSS	5.15
Z18-R50L (VHH, IMGT numbering; the methods describe vector and expression for Z18 and Z26; source: E. coli BL21 (DE3), purified (Ni-NTA, SEC)) VHH: QVQLVESGGGLVQAGDSLRLSCAASGRTFSGYAMGWFRQAPGKELEFVARINWSGTLTYYADSVKGRFTGSRDNAKNTVYLQMNSLKPEDTAVYYCAQRGDSGSNYDPSGYSYWGQGTQVTVSS	6.39
single-domain VHH antibody Z18 (VHH, pRA2 vector with N-terminal pelB signal peptide; also called wild-type Z18; source: E. coli BL21 (DE3), purified (Ni-NTA, SEC); not shown: hexa-histidine, C-terminal, kept) VHH: QVQLVESGGGLVQAGDSLRLSCAASGRTFSGYAMGWFRQAPGKEREFVARINWSGTLTYYADSVKGRFTGSRDNAKNTVYLQMNSLKPEDTAVYYCAQRGDSGSNYDPSGYSYWGQGTQVTVSS	6.48

Name the reported pKd value associated with the binder Z18-S133R (VHH, IMGT numbering; the methods describe vector and expression for Z18 and Z26; source: E. coli BL21 (DE3), purified (Ni-NTA, SEC)) VHH: QVQLVESGGGLVQAGDSLRLSCAASGRTFSGYAMGWFRQAPGKEREFVARINWSGTLTYYADSVKGRFTGSRDNAKNTVYLQMNSLKPEDTAVYYCAQRGDSGSNYDPSGYRYWGQGTQVTVSS
7.17

Now this one: Z18-N85S (VHH, IMGT numbering; the methods describe vector and expression for Z18 and Z26; source: E. coli BL21 (DE3), purified (Ni-NTA, SEC)) VHH: QVQLVESGGGLVQAGDSLRLSCAASGRTFSGYAMGWFRQAPGKEREFVARINWSGTLTYYADSVKGRFTGSRDNAKSTVYLQMNSLKPEDTAVYYCAQRGDSGSNYDPSGYSYWGQGTQVTVSS
6.46

Now this one: Z18-V2L (VHH, IMGT numbering; the methods describe vector and expression for Z18 and Z26; source: E. coli BL21 (DE3), purified (Ni-NTA, SEC)) VHH: QLQLVESGGGLVQAGDSLRLSCAASGRTFSGYAMGWFRQAPGKEREFVARINWSGTLTYYADSVKGRFTGSRDNAKNTVYLQMNSLKPEDTAVYYCAQRGDSGSNYDPSGYSYWGQGTQVTVSS
6.44

Now this one: Z18-Y114F (VHH, IMGT numbering; the methods describe vector and expression for Z18 and Z26; source: E. coli BL21 (DE3), purified (Ni-NTA, SEC)) VHH: QVQLVESGGGLVQAGDSLRLSCAASGRTFSGYAMGWFRQAPGKEREFVARINWSGTLTYYADSVKGRFTGSRDNAKNTVYLQMNSLKPEDTAVYYCAQRGDSGSNFDPSGYSYWGQGTQVTVSS
7.89

Now this one: Z18-G32D (VHH, IMGT numbering; the methods describe vector and expression for Z18 and Z26; source: E. coli BL21 (DE3), purified (Ni-NTA, SEC)) VHH: QVQLVESGGGLVQAGDSLRLSCAASGRTFSDYAMGWFRQAPGKEREFVARINWSGTLTYYADSVKGRFTGSRDNAKNTVYLQMNSLKPEDTAVYYCAQRGDSGSNYDPSGYSYWGQGTQVTVSS
6.76

Now this one: Z18-R50L/G78A/S133R (VHH, IMGT numbering; the methods describe vector and expression for Z18 and Z26; source: E. coli BL21 (DE3), purified (Ni-NTA, SEC)) VHH: QVQLVESGGGLVQAGDSLRLSCAASGRTFSGYAMGWFRQAPGKELEFVARINWSGTLTYYADSVKGRFTASRDNAKNTVYLQMNSLKPEDTAVYYCAQRGDSGSNYDPSGYRYWGQGTQVTVSS
6.35
